Cited source: patent US12522582B2

# Test system: HSV-2 virus (MS strain)
# assay_details: HSV qPCR Assay (HSV replication in ARPE-19 cells)
# setup_conditions: Human alphaherpesvirus 2, ARPE-19, read-out: EC50-HSV2-qPCR
Record form. Attribute: EC50. Fill in for each entry.
Note: unit nM is implicit; provide only the numeric part.

Looking up NS(=O)(=O)c1ccc2c(c1)N(C(=O)C1Cc3ccc(-c4cnccn4)cc3C1)CC2 (stereo not shown) , I found its EC50 recorded as 8.3

Looking up NS(=O)(=O)c1cc2c(cc1F)C[C@H](CF)N2C(=O)[C@@H]1Cc2ccc(-c3ccccn3)cc2C1 , I found its EC50 recorded as 56.7

Looking up C[C@@H]1Cc2cc(F)c(S(N)(=O)=O)cc2N1C(=O)[C@H]1Cc2cc(-c3ccccn3)ccc2O1 , I found its EC50 recorded as 1

Looking up C[C@H]1c2ccc(-c3ccccn3)cc2C[C@@H]1C(=O)N1C[C@@H](C(F)(F)F)c2cc(F)c(S(N)(=O)=O)cc21 , I found its EC50 recorded as 2
